# method.notes: PK characteristics in humans (plasma, LC/MS/MS)
# Type: in vivo, human
# test.conditions: human, plasma, oral, 240 mg, Day 1, 240 mg, n=2, mean; read-out: Tmax
result.type: Tmax (h)

1) Nc1cc(C(F)(F)F)c(-c2nc(N3CCOCC3)c3nc(-c4cccc(NS(=O)(=O)CCCF)c4F)ccc3n2)cn1 [CMPD A]
5

====

# method.notes: PK characteristics in humans (plasma, LC/MS/MS)
# Type: in vivo, human
# test.conditions: human, plasma, oral, 10 mg, Day 1, 10 mg, n=1; read-out: Cmax
result.type: Cmax (µg/mL)

1. Nc1cc(C(F)(F)F)c(-c2nc(N3CCOCC3)c3nc(-c4cccc(NS(=O)(=O)CCCF)c4F)ccc3n2)cn1
0.058
